- Tested on: HEK-293T
- ASSAY_PROCEDURE: Multiplex assay against HEK293T
- Format: toxicity, cell-based
- RUN_PARAMETERS: human, 24 h, 1 µM, compound concentration 1 uM, replicate 1
READOUT_LABEL: Population Membrane Permeable-Phenotype (%)
Give bare numbers, in %.

Item Cc1c(P(=S)(c2ccccc2)c2ccccc2)n2ccccc2[n+]1C/C=C/c1ccccc1.[Br-] has what recorded Population Membrane Permeable-Phenotype (%)? 3

Request the reported Population Membrane Permeable-Phenotype (%) associated with Cc1ccc(NC(=O)Nc2cc(C(F)(F)F)ccc2F)cc1Nc1ccc2c(c1)NC(=O)/C2=C\c1ccc[nH]1 47

Bench note: what Population Membrane Permeable-Phenotype (%) did CC(/C=C1\SC(=S)N(CCCC(=O)Nc2ccc(C(=O)O)c(O)c2)C1=O)=C\c1ccccc1 show? 1

Now, please, on to the next molecule.
Report Population Membrane Permeable-Phenotype (%) for N#CCNC(=O)c1ccc(-c2ccnc(Nc3ccc(N4CCOCC4)cc3)n2)cc1 please. 1

Sourced from ChEMBL document CHEMBL4689842
